- Tested on: DNA aptamer or structured DNA GGGACGACGGGATTCGGATCGTGGAACAGTGCCTCGTCGTCGTCCC
- CONDITION SET: 10 mM Tris-HCl, pH 7.4
EXPERIMENTAL READOUT: Kd (µM)
State the answer as a number, implicitly in µM.

Briefly, Kd measured for CC(=O)Oc1ccc2c3c1O[C@H]1[C@@H](OC(C)=O)C=C[C@H]4[C@@H](C2)N(C)CC[C@@]341 : 0.85

----------
- Tested on: DNA aptamer or structured DNA TTCAAATCTGAGCAGCCTAGTTACTGACGGGTTTATAGTACTCACATTGAGTCTAGATTTGAA
- CONDITION SET: 10 mM Tris-HCl, pH 7.4
EXPERIMENTAL READOUT: pKd
Answer as the number alone; pKd is minus log10 of concentration in mol/L.

// CN[C@@H](C)Cc1ccccc1 : pKd value = 5.73

----------
- System: DNA aptamer or structured DNA GGGACGACGAGTGCGGGGAGTGTGTTTCTGTGGGGGTCGTCGTCCC
- CONDITION SET: 10 mM Tris-HCl, pH 7.4
EXPERIMENTAL READOUT: Kd (nM)
A number alone suffices; assume nM.

Sample COc1ccc2c3c1O[C@H]1C(=O)CC[C@@]4(O)[C@@H](C2)N(C)CC[C@]314 ; Kd observed: 990

----------
- Tested on: DNA aptamer or structured DNA CTTACGACGGGTGCCGTTGGTTCTAGGGTTAGGATGGCGTCGTAAG
- CONDITION SET: 10 mM Tris-HCl, pH 7.4
EXPERIMENTAL READOUT: pKd
For clarity, pKd is expressed as the negative log10 of concentration in mol/L.

Query COC(=O)[C@@H]1C2CCC(C[C@@H]1OC(=O)c1ccccc1)N2C (stereo partly specified) yields pKd of 6.50

----------
- Tested on: DNA aptamer or structured DNA GGGACGACGGCACGAGGTAATTCGTTGGTTGCACTGCGCTGGGAGGCAGTCGTCCC
- CONDITION SET: 10 mM Tris-HCl, pH 7.4
EXPERIMENTAL READOUT: binding call; note: call rule not given here

Take a look at these entries with their results.
INSERT INTO results (molecule, value) VALUES
  ('COc1cc(CC(=O)O)ccc1O', 'binds'),
  ('N[C@@H](Cc1ccccc1)C(=O)O', 'no binding'),
  ('CN1CC[C@]23c4c5ccc(O)c4O[C@H]2[C@@H](O)C=C[C@H]3[C@H]1C5', 'no binding'),
  ('C=C[C@H]1CN2CC[C@@H]1C[C@H]2[C@H](O)c1ccnc2ccc(OC)cc12', 'no binding'),
  ('CN[C@@H](C)[C@@H](O)c1ccccc1', 'no binding');

Lab note: measured binding call of NCCc1ccc(O)c(O)c1 was binds

Lab note: O=C(O)Cc1ccc(O)c(O)c1 gave binding call of no binding

----------
- Tested on: DNA aptamer or structured DNA TTCAAATCTGAGCAGCCTAGTTACTGACGGGTTTATAGTACTCGCATCGAGTCTAGATTTGAA
- CONDITION SET: 10 mM Tris-HCl, pH 7.4
EXPERIMENTAL READOUT: binding call; note: call rule not given here

These recorded examples may help you get a feel for the data.
INSERT INTO assay_data (compound, experimental_readout, value) VALUES
  ('CC(N)Cc1ccccc1 (stereo unspecified)', 'binding call', 'no binding'),
  ('COc1cc(CC(=O)O)ccc1O', 'binding call', 'no binding'),
  ('CCCC(C(=O)c1ccc2c(c1)OCO2)N1CCCC1 (stereo unspecified)', 'binding call', 'no binding'),
  ('C=C[C@H]1CN2CC[C@@H]1C[C@H]2[C@H](O)c1ccnc2ccc(OC)cc12', 'binding call', 'binds'),
  ('CCN(CC)CC(=O)Nc1c(C)cccc1C', 'binding call', 'no binding');

Lab note: next compound to report on.
The reported binding call of the compound CN1CC[C@]23c4c5ccc(O)c4O[C@H]2[C@@H](O)C=C[C@H]3[C@H]1C5 was no binding
